Exercise: for every item that follows, state its recorded half-life.
# Test: Mouse microsomal stability
# Assay type: in vitro ADME
# Setup Conditions: microsomes, read-out: Mouse Microsomes T1/2
Give bare numbers, in min.

Here is how some compounds turned out for half-life.
Cn1cc(Cn2c(=O)c3cc(S(=O)(=O)NC4(C(F)F)CC4)ccc3n(Cc3ccn(C)n3)c2=O)cn1    42
CCn1c(=O)n(Cc2cc(C)on2)c(=O)c2cc(S(=O)(=O)NC3(CF)CC3)ccc21    121
Cn1cc(Cn2c(=O)c3cc(S(=O)(=O)NC4(CF)CC4)ccc3n(Cc3ccn(C)n3)c2=O)cn1    37
Cn1cc(Cn2c(=O)c3cc(S(=O)(=O)NC4(C(F)(F)F)CC4)ccc3n(Cc3ccn(C)n3)c2=O)cn1    38
Cn1cc(Cn2c(=O)c3cc(S(=O)(=O)NC4(CF)CC4)ccc3n(C)c2=O)cn1    285
Cn1cc(Cn2c(=O)c3cc(S(=O)(=O)NC4(C)CC4)ccc3n(C)c2=O)cn1    82
[2H]C([2H])([2H])C1(NS(=O)(=O)c2ccc3c(c2)c(=O)n(Cc2cnn(C)c2)c(=O)n3Cc2ccn(C)n2)CC1    18
CCn1c(=O)n(Cc2cnn(C)c2)c(=O)c2cc(S(=O)(=O)NC3(C)CC3)ccc21    47

Hello, I would appreciate it if you could give half-life for each entry below.
1. Cn1cc(Cn2c(=O)c3cc(S(=O)(=O)NC4(C)CC4)ccc3n(Cc3ccn(C)n3)c2=O)cn1
2. CCn1c(=O)n(Cc2cnn(C)c2)c(=O)c2cc(S(=O)(=O)NC3(CF)CC3)ccc21

result:
1. 22
2. 102
